The values you see were collected from patent US11787762B2.

The reader will find reported pIC50 values listed item by item below.
# TGT: HIF-2α (Homo sapiens)
# Construct: host or cells: 786-O cells stably transduced with Cignal Lenti HIF Luc Reporter (only the reporter was introduced, not HIF-2α)
# Sequence (Q99814 whole entry): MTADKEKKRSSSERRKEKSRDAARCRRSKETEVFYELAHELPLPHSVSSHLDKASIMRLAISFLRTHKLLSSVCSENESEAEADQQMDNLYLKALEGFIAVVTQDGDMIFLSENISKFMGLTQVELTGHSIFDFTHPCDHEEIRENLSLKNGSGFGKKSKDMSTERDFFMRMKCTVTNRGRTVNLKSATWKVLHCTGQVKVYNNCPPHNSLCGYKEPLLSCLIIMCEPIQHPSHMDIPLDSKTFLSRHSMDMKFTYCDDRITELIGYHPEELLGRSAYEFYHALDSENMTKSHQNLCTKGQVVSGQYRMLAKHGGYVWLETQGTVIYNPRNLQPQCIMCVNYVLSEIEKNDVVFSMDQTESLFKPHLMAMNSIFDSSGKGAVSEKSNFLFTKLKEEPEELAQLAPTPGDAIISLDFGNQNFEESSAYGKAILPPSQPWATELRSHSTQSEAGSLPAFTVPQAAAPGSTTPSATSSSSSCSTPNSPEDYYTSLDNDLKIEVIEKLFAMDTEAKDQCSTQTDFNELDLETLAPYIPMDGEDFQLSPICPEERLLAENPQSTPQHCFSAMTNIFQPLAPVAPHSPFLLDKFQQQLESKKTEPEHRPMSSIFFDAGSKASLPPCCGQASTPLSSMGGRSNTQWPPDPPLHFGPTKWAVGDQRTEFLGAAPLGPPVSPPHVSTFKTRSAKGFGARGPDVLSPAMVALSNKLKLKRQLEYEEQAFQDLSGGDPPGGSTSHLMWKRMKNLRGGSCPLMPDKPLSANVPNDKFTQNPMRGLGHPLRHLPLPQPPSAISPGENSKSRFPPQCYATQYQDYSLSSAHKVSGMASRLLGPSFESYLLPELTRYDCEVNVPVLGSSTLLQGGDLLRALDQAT
# PROCEDURE DETAILS: HIF-2α luciferase reporter assay in HIF-Luc-786-O cells
# Format: cell-based
# MEASUREMENT CONDITIONS: Table 3, 20 hours incubation
pIC50: −log10 of the molar value.
ASSAY ENDPOINT: pIC50

N#Cc1cc(F)cc2c1[C@@H](c1ccc(-c3cccnc3CF)c3c1CC(F)(F)[C@H]3O)CC[C@@H]2F : > 7.00
Cc1nc(S(C)(=O)=O)ccc1-c1ccc([C@H]2CC[C@H](F)c3cc(F)cc(C#N)c32)c2c1[C@H](O)C(F)(F)C2 : 6.00 to 7.00
Cc1scnc1-c1ccc([C@H]2CC[C@H](F)c3cc(F)cc(C#N)c32)c2c1[C@H](O)C(F)(F)C2 : > 7.00
N#Cc1cc(F)cc2c1[C@@H](c1ccc(-c3cccnc3N)c3c1CC(F)(F)[C@H]3O)CC[C@@H]2F : > 7.00
Cc1cnccc1-c1ccc([C@H]2CC[C@H](F)c3cc(F)cc(C#N)c32)c2c1[C@H](O)C(F)(F)C2 : > 7.00
N#Cc1cc(F)cc2c1[C@@H](c1ccc(-c3cccc4c3CC(=O)N4)c3c1CC(F)(F)[C@H]3O)CC[C@@H]2F : 6.00 to 7.00
N#Cc1cc(F)cc2c1[C@@H](c1ccc(-c3ccn[nH]3)c3c1C[C@@H](F)[C@H]3O)CC[C@@H]2F : < 6.00
N#Cc1cc(F)cc2c1[C@@H](c1ccc(-c3cncs3)c3c1CC(F)(F)[C@H]3O)CC[C@@H]2F : > 7.00
Cn1cncc1-c1c(F)cc([C@H]2C[C@H](F)[C@H](F)c3cc(F)cc(C#N)c32)c2c1[C@H](O)C(F)(F)C2 : > 7.00
